Provenance of the data: patent US9708334B2

experimental target: GlyT1 (Homo sapiens, UniProt P48067)
Construct: expressed in transfected cells
procedure summary: Glycine Transporter 1 (GlyT1) uptake assay, scintillation proximity assay of [14C]-glycine uptake
Type: cell-based
details: SPA, four parameter logistic fit, read-out: GlyT1 (pIC50) (converted)
observed property: IC50

Recorded IC50, per entry:
[[record]]
molecule = "C[C@H](Oc1ccc(C#N)cc1C(=O)N1Cc2cn(-c3ccncc3)nc2C1)C(F)(F)F"
result_value = "< 100 nM"

[[record]]
molecule = "Cc1ccnc(-n2cc3c(n2)CN(C(=O)c2c(O[C@@H](C)C(F)(F)F)ccc(C#N)c2Cl)C3)c1"
result_value = "< 100 nM"

[[record]]
molecule = "CC1(COc2ccc(C#N)c(Cl)c2C(=O)N2CCc3nn(-c4ccccc4)cc3C2)COC1"
result_value = "1000 to 10000 nM"


Endpoint output: IC50 of "N#Cc1ccc(C2(F)CCOCC2)c(C(=O)N2CCc3nn(-c4ccc(F)cc4)cc3C2)c1F" . Value?
1000 to 10000 nM

* * *

IC50 listing for selected molecules.
experimental target: GlyT1 (Homo sapiens)
Construct: expressed in transfected cells
Sequence (P48067 1-706): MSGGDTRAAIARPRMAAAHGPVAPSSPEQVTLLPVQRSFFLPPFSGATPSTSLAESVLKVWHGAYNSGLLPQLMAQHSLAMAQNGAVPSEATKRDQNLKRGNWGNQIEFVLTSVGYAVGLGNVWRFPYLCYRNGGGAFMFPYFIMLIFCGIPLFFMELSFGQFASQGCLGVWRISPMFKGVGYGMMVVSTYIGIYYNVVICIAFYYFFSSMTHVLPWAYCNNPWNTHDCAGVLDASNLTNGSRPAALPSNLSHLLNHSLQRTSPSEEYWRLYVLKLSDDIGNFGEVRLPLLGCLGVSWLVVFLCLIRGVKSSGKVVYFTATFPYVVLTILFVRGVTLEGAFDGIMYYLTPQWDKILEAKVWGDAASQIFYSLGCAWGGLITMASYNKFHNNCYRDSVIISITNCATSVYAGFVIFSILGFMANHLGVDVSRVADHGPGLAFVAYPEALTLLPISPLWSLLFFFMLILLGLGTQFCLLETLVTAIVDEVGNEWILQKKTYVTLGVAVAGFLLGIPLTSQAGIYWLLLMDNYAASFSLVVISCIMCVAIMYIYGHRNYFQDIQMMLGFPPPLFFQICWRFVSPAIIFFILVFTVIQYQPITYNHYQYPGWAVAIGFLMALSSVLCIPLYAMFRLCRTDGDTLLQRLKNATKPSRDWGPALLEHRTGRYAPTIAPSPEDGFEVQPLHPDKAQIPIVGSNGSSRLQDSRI
procedure summary: Glycine Transporter 1 (GlyT1) uptake assay, scintillation proximity assay of [14C]-glycine uptake
Format: cell-based
details: SPA, four parameter logistic fit, read-out: GlyT1 (pIC50) (converted)

[[record]]
molecule = "C[C@H](Oc1ccc(C#N)c(Cl)c1C(=O)N1Cc2cn(-c3ccc(C(F)(F)F)nc3)nc2C1)C(F)(F)F"
observed_property = "IC50"
result_value = "100 to 1000 nM"


Endpoint output: IC50 of "C[C@H](Oc1ccc(C#N)cc1C(=O)N1Cc2cn(-c3ccc(F)cc3)nc2C1)C(F)(F)F" . Value?
100 to 1000 nM

Endpoint output: IC50 of "COc1c(C#N)ccc(OC(C)(C)C(F)(F)F)c1C(=O)N1Cc2cn(-c3ccc(F)cc3)nc2C1" . Value?
< 100 nM

* * *

IC50 listing for selected compounds.
experimental target: GlyT1 (Homo sapiens)
Construct: expressed in transfected cells
procedure summary: Glycine Transporter 1 (GlyT1) uptake assay, scintillation proximity assay of [14C]-glycine uptake
Type: cell-based
details: SPA, four parameter logistic fit, read-out: GlyT1 (pIC50) (converted)

[[record]]
compound = "CC(C)Oc1ccc(S(=O)(=O)C(C)C)cc1C(=O)N1Cc2cn(-c3ccccc3F)nc2C1 [Example 95]"
observed_property = "IC50"
result_value = "1000 to 10000 nM"

[[record]]
compound = "CCS(=O)(=O)c1ccc(OC(C)C)c(C(=O)N2Cc3cn(-c4ccccc4F)nc3C2)c1 [Example 74]"
observed_property = "IC50"
result_value = "100 to 1000 nM"

[[record]]
compound = "Cc1cccc(-n2cc3c(n2)CN(C(=O)c2cc(S(C)(=O)=O)ccc2O[C@@H](C)C(F)(F)F)C3)c1 [Example 34]"
observed_property = "IC50"
result_value = "< 100 nM"


Okay, now this compound:
Endpoint output: IC50 of Cc1cccc(-n2cc3c(n2)CN(C(=O)c2cc(S(C)(=O)=O)ccc2O[C@@H](C)C(F)(F)F)C3)c1F [Example 42] . Value?
< 100 nM

* * *

experimental target: GlyT1 (Homo sapiens, UniProt P48067)
Construct: expressed in transfected cells
procedure summary: Glycine Transporter 1 (GlyT1) uptake assay, scintillation proximity assay of [14C]-glycine uptake
Format: cell-based
details: SPA, four parameter logistic fit, read-out: GlyT1 (pIC50) (converted)
IC50 listing for selected molecules.

Endpoint output: IC50 of "CC(C)Oc1ccc(S(C)(=O)=O)cc1C(=O)N1Cc2cn(-c3ccc(F)c(C(F)F)c3)nc2C1" . Value?
< 100 nM

Endpoint output: IC50 of "CC(C)Oc1ccc(C#N)cc1C(=O)N1Cc2cn(C3CCOCC3)nc2C1" . Value?
100 to 1000 nM

* * *

experimental target: GlyT1 (Homo sapiens)
Construct: expressed in transfected cells
procedure summary: Glycine Transporter 1 (GlyT1) uptake assay, scintillation proximity assay of [14C]-glycine uptake
Assay type: cell-based
details: SPA, four parameter logistic fit, read-out: GlyT1 (pIC50) (converted)
observed property: IC50

# value lookup — system GlyT1 (Homo sapiens), readout IC50, item Cc1c(F)ccc(-n2cc3c(n2)CN(C(=O)c2cc(S(C)(=O)=O)ccc2O[C@@H](C)C(F)(F)F)C3)c1F [Example 58]
< 100 nM

# value lookup — system GlyT1 (Homo sapiens), readout IC50, item C[C@H](Oc1ccc(S(C)(=O)=O)cc1C(=O)N1Cc2cn(-c3cc(Cl)ccc3F)nc2C1)C(F)(F)F [Example 59]
< 100 nM

# value lookup — system GlyT1 (Homo sapiens), readout IC50, item CC(Oc1ccc(C#N)c(Cl)c1C(=O)N1CCc2c(cnn2-c2ccc(F)cc2)C1)C(F)(F)F (stereo not shown) [Example 501]
100 to 1000 nM

# value lookup — system GlyT1 (Homo sapiens), readout IC50, item C[C@H](Oc1ccc(C#N)cc1C(=O)N1Cc2cnn(CC3CCOCC3)c2C1)C(F)(F)F [Example 394]
1000 to 10000 nM

# value lookup — system GlyT1 (Homo sapiens), readout IC50, item CS(=O)(=O)c1ccc(OCC2CC2)c(C(=O)N2Cc3cn(-c4ccccc4)nc3C2)c1 [Example 118]
100 to 1000 nM

# value lookup — system GlyT1 (Homo sapiens), readout IC50, item C[C@H](Oc1ccc(C#N)cc1C(=O)N1Cc2cn(-c3ccn4ccnc4c3)nc2C1)C(F)(F)F [Example 425]
100 to 1000 nM

# value lookup — system GlyT1 (Homo sapiens), readout IC50, item COc1c(C(=O)N2CCC2)ccc(OC(C)C(F)(F)F)c1C(=O)N1CCc2nn(-c3ccc(F)cc3)cc2C1 (stereo not shown) [Example 479]
< 100 nM

# value lookup — system GlyT1 (Homo sapiens), readout IC50, item COc1c(C#N)ccc(C2(F)COC2)c1C(=O)N1CCc2nn(-c3ccccc3)cc2C1 [Example 487]
1000 to 10000 nM

# value lookup — system GlyT1 (Homo sapiens), readout IC50, item C[C@H](Oc1ccc(C#N)cc1C(=O)N1Cc2cn(CC(C)(C)F)nc2C1)C(F)(F)F [Example 378]
100 to 1000 nM

* * *

IC50 listing for selected compounds.
experimental target: GlyT1 (Homo sapiens, UniProt P48067)
Construct: expressed in transfected cells
procedure summary: Glycine Transporter 1 (GlyT1) uptake assay, scintillation proximity assay of [14C]-glycine uptake
Assay type: cell-based
details: SPA, four parameter logistic fit, read-out: GlyT1 (pIC50) (converted)

Recorded IC50, per entry:
[[record]]
compound = "COc1c(C#N)ccc(OCC(F)F)c1C(=O)N1Cc2cn(-c3cncc(F)c3)nc2C1 [Example 331]"
result_value = "< 100 nM"

[[record]]
compound = "CC1(COc2ccc(S(C)(=O)=O)cc2C(=O)N2Cc3cn(-c4cccc(C(F)(F)F)c4F)nc3C2)COC1 [Example 438]"
result_value = "100 to 1000 nM"


Endpoint output: IC50 of C[C@H](Oc1ccc(S(C)(=O)=O)cc1C(=O)N1Cc2cn(C3CCC(F)(F)CC3)nc2C1)C(F)(F)F [Example 471] . Value?
< 100 nM

Endpoint output: IC50 of N#Cc1ccc(-c2cccc(F)c2)c(C(=O)N2Cc3cn(C4CCOCC4)nc3C2)c1 [Example 557] . Value?
100 to 1000 nM

Endpoint output: IC50 of COc1c(C#N)ccc(OC2COC2)c1C(=O)N1Cc2cn(-c3ccc(F)cc3)nc2C1 [Example 519] . Value?
< 100 nM

Endpoint output: IC50 of CC(Oc1ccc(C#N)c(Cl)c1C(=O)N1CCc2c(cnn2-c2ccc(F)cn2)C1)C(F)(F)F (stereo not shown) [Example 210] . Value?
< 100 nM

Endpoint output: IC50 of C[C@H](Oc1ccc(S(C)(=O)=O)cc1C(=O)N1Cc2cn(-c3cc(F)ccc3F)nc2C1)C(F)(F)F [Example 121] . Value?
< 100 nM
